Listed below: Positive rates values for each entry.
Target: T1, B7H3 (CD276) on MC38-CD276+ cells
T1 construct: whole, on cells; MC38-CD276KO cells served as the negative control; also called MC38-B7H3+
T1 sequence (Q5ZPR3 1-534, species assumed, looked up): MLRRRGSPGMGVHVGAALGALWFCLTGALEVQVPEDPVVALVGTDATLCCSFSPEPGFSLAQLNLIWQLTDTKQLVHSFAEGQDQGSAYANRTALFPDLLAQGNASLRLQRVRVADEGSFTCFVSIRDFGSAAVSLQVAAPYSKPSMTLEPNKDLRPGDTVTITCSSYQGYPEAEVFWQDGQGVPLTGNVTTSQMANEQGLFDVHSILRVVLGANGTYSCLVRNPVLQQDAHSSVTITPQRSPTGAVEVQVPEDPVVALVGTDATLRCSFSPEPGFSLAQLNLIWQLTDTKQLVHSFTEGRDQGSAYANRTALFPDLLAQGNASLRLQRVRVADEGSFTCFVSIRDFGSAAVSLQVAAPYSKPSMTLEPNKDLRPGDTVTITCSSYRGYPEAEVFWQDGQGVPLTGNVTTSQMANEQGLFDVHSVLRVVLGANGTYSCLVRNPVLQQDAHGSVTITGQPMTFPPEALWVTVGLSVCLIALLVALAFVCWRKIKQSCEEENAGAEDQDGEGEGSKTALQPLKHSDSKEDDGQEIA
Assay: flow cytometry on MC38-CD276+ cells, VHH at 10 ug/ml
// note: answer is a bare numeric in %

binder="RWD5 (VHH, Camel VHH; tag not described; also called RWDS [sic]; camel antibody RWD5) VHH: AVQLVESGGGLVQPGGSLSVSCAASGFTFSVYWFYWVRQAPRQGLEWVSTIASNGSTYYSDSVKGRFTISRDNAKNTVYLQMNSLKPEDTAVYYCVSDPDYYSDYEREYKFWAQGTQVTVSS" assay_result=44.9

Fill in Positive rates for record RWB12 (VHH, Camel VHH; tag not described; also called camel antibody RWB12) VHH: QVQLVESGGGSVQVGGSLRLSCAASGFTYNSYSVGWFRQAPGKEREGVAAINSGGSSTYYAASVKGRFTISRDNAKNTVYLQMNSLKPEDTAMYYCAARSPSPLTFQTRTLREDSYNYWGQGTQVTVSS
4.16
